Reported values of growth for individual entries
System: SNB-19 CNS
experiment.description: NCI-60 one-dose screen, 48 h (100 = growth as untreated, 0 = no growth, -100 = all killed)
condition.details: 10 µM unless noted
This is part of a sample that, as a whole, favours compounds with a hit. Of some 83,000 tested, about 20% had one in any assay.
# output: bare number, implied unit %

[
  {
    "compound": "CN(C)CCCNc1nn2c(=O)c3ccccc3nc2c2ccccc12",
    "unit.abbreviation": "%",
    "growth": 69.7
  },
  {
    "compound": "COc1ccc(CC(=O)Nc2nn3c(-c4cc(C(F)(F)F)cc(C(F)(F)F)c4)nnc3s2)cc1",
    "unit.abbreviation": "%",
    "growth": 70.1
  },
  {
    "compound": "O=C(CN1CCN(c2ccc(Cl)cc2)CC1)N1CCN(c2nnc(-c3ccccc3)c(-c3ccccc3)n2)CC1",
    "unit.abbreviation": "%",
    "growth": 60
  },
  {
    "compound": "Cc1sc2nc(NCCc3cccs3)[nH]c(=O)c2c1C",
    "unit.abbreviation": "%",
    "growth": 90.2
  },
  {
    "compound": "CCSc1nc(-c2ccco2)n2nc(-c3ccco3)cc2n1",
    "unit.abbreviation": "%",
    "growth": 113
  }
]

Reported growth for OCCCc1n(Cc2ccc3ccccc3c2)c2ccccc2[n+]1Cc1ccc2ccccc2c1 : what is it?
3.3

Reported growth for COc1cc(Cl)cc(-c2nn(-c3cccc(NC(=O)c4cc(C(F)(F)F)cc(C(F)(F)F)c4)c3)cc2-c2ccncc2)c1 : what is it?
86.4

Reported growth for CCSc1nc(-c2ccc(F)cc2)c(C#N)c(=O)[nH]1 : what is it?
107

Reported growth for CCOC(=O)/C(=C/CC/C(C)=C/CC/C(C)=C/CCc1ccoc1)CC(=O)N1CCCCC1 : what is it?
36

Reported growth for CC1CC=CCC1C1OCC(C)(C)CO1 (configuration not stated) : what is it?
102
